study-target: human Cdc7/human ASK conjugated protein (Homo sapiens)
Construct: purchased CARNA BIOSCIENCES
test-name: Cdc7 protein kinase inhibitory action (Cdc7-ASK kinase activity, 32P-labeled MCM2)
Type: biochemical
test-parameters: substrate mouse MCM2-4(his)-6-7(his) conjugated protein, 0.1 mM ATP, 30° C. for 45 minutes; read-out: Activity (uM) ELISA (IC50)
measured-metric: IC50 (µM)

Guide cases for IC50, answers given:
{"columns": ["compound", "measured-metric", "units-symbol", "measured-number"],
 "data": [
  ["CN1CCC(Oc2ccc(/N=C3/NC(=O)/C(=C/c4c[nH]c5ncccc45)S3)c(Cl)c2)CC1", "IC50", "µM", 0.001],
  ["CN(C)CCOc1ccc(/N=C2/NC(=O)/C(=C/c3c[nH]c4ncncc34)S2)c(C(F)(F)F)c1", "IC50", "µM", 0.006]
]}

(P) Cc1cc(OC2CCN(C)C2)ccc1/N=C1/NC(=O)/C(=C/c2c[nH]c3ncncc23)S1 (stereo not shown)
(Q) CN(C)CCOc1ccc(/N=C2/NC(=O)/C(=C/c3c[nH]c4ncccc34)S2)c(C(F)(F)F)c1
In: // compare: P vs Q , metric IC50, want the smaller Choose, then provide that item's label.
Out: Q

====

study-target: human Cdc7/human ASK conjugated protein (Homo sapiens, UniProt O00311)
Construct: purchased CARNA BIOSCIENCES
Sequence (O00311 whole entry): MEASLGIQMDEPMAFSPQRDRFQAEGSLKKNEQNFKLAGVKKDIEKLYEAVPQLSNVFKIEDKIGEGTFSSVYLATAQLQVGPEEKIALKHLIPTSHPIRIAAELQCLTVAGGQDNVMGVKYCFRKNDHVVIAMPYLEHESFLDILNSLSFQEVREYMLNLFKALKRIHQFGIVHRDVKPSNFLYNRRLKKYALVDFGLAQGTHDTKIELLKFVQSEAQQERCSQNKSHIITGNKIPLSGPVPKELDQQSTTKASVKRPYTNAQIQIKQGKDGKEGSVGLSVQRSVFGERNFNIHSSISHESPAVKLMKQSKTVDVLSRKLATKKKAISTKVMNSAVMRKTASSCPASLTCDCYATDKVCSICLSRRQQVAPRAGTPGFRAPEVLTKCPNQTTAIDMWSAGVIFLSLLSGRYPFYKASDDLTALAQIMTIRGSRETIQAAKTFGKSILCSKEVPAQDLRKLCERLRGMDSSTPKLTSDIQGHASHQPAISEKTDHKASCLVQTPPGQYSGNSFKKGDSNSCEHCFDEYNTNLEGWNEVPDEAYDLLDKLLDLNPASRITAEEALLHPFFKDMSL
Sequence (Q9UBU7 whole entry partner): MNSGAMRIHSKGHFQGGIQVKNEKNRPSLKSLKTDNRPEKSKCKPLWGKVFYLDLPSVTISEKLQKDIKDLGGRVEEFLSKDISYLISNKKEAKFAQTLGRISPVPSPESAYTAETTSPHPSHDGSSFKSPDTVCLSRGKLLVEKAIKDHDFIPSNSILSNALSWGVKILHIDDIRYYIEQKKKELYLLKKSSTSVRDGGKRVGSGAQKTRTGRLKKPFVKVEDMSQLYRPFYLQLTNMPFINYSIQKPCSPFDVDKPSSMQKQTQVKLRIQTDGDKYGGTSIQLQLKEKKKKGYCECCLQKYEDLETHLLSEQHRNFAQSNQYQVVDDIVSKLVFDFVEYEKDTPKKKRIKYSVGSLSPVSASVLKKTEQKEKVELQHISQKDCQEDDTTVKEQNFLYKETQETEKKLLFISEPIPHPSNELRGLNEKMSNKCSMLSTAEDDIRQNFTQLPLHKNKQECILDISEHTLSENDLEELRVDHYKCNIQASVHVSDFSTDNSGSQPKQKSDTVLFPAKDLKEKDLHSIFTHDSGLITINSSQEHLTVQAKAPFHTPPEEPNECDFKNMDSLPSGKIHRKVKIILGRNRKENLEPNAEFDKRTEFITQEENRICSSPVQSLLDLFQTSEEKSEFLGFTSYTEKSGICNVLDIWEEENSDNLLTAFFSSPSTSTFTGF
test-name: Cdc7 protein kinase inhibitory action (Cdc7-ASK kinase activity, 32P-labeled MCM2)
Type: biochemical
test-parameters: substrate mouse MCM2-4(his)-6-7(his) conjugated protein, 0.1 mM ATP, 30° C. for 45 minutes; read-out: Activity (uM) ELISA (IC50)
measured-metric: IC50 (µM)

Guide cases for IC50, answers given:
{"columns": ["compound", "IC50 / µM"],
 "data": [
  ["CN1CCC(Oc2ccc(/N=C3/NC(=O)/C(=C/c4c[nH]c5ncncc45)S3)c(C(F)(F)F)c2)C1 (centres unmarked)", 0.007],
  ["CN1CCC(Oc2ccc(/N=C3/NC(=O)/C(=C/c4c[nH]c5ncccc45)S3)c(C(F)(F)F)c2)CC1", 0.003],
  ["Cc1cc(OC2CCN(C)CC2)ccc1/N=C1/NC(=O)/C(=C/c2c[nH]c3ncncc23)S1", 0.006],
  ["Cc1ccc(/N=C2/NC(=O)/C(=C/c3c[nH]c4ncccc34)S2)c(C)c1", 0.001],
  ["CN1CCC(Oc2ccc(/N=C3/NC(=O)/C(=C/c4c[nH]c5ncccc45)S3)c(Cl)c2)C1 (centres unmarked)", 0.001],
  ["O=C1N/C(=N/c2ccc(C(=O)O)cc2)S/C1=C\\c1c[nH]c2ncccc12", 0.018],
  ["Cc1cc(OCCN2CCN(C)CC2)ccc1/N=C1/NC(=O)/C(=C/c2c[nH]c3ncccc23)S1", 0.0021],
  ["CN1CCC(Oc2ccc(/N=C3/NC(=O)/C(=C/c4c[nH]c5ncncc45)S3)c(Cl)c2)CC1", 0.003],
  ["CN1CCC(Oc2ccc(/N=C3/NC(=O)/C(=C/c4c[nH]c5ncccc45)S3)c(C(F)(F)F)c2)C1 (centres unmarked)", 0.002],
  ["Cc1cc(OCCN(C)C)ccc1/N=C1/NC(=O)/C(=C/c2c[nH]c3ncncc23)S1", 0.005]
]}

(a) CN1CCC(Oc2ccc(/N=C3/NC(=O)/C(=C/c4c[nH]c5ncncc45)S3)c(Cl)c2)C1 (centres unmarked)
(b) Cc1cc(O)ccc1/N=C1/NC(=O)/C(=C/c2c[nH]c3ncccc23)S1
In: Sort a and b by IC50 descending and give the first. Choose, then provide that item's label.
Out: a

(1) CN(C)CCOc1ccc(/N=C2/NC(=O)/C(=C/c3c[nH]c4ncccc34)S2)c(Cl)c1
(2) COc1ccc(/N=C2/NC(=O)/C(=C/c3c[nH]c4ncccc34)S2)c(C)c1
In: Sort 1 and 2 by IC50 descending and give the first. Choose, then provide that item's label.
Out: 1
(1: 0.002 µM, 2: 0.0012 µM)

(1) Cc1cc(OCCN(C)C)ccc1/N=C1/NC(=O)/C(=C/c2c[nH]c3ncccc23)S1
(2) Cc1cc(OC2CCN(C)C2)ccc1/N=C1/NC(=O)/C(=C/c2c[nH]c3ncccc23)S1 (centres unmarked)
In: Sort 1 and 2 by IC50 descending and give the first. Choose, then provide that item's label.
Out: 2
(2: 0.003 µM, 1: 0.0019 µM)

====

study-target: human Cdc7/human ASK conjugated protein (Homo sapiens, UniProt O00311)
Construct: purchased CARNA BIOSCIENCES
test-name: Cdc7 protein kinase inhibitory action (Cdc7-ASK kinase activity, 32P-labeled MCM2)
Assay type: biochemical
test-parameters: substrate mouse MCM2-4(his)-6-7(his) conjugated protein, 0.1 mM ATP, 30° C. for 45 minutes; read-out: Activity (uM) ELISA (IC50)
measured-metric: IC50 (µM)
Give your result in µM as a bare value.

In: Using the record for Cc1cc(OCCN2CCOCC2)ccc1/N=C1/NC(=O)/C(=C/c2c[nH]c3ncccc23)S1 , report its IC50.
Out: 0.0017
